molecular target: recombinant human LTA4 hydrolase (rhLTA4H) (Homo sapiens, UniProt P09960); construct: made in house; host or cells: Spodoptera frugiperda (Sf-9) cells, recombinant baculovirus (pFastBac1); test: Recombinant human LTA4 hydrolase assay for LTA4 hydrolase inhibitor activity; format: biochemical; conditions: rhLTA4H, LTA4 substrate, LTB4 by immunoassay; single determination or average; read-out: IC50
Sequence (P09960 whole entry): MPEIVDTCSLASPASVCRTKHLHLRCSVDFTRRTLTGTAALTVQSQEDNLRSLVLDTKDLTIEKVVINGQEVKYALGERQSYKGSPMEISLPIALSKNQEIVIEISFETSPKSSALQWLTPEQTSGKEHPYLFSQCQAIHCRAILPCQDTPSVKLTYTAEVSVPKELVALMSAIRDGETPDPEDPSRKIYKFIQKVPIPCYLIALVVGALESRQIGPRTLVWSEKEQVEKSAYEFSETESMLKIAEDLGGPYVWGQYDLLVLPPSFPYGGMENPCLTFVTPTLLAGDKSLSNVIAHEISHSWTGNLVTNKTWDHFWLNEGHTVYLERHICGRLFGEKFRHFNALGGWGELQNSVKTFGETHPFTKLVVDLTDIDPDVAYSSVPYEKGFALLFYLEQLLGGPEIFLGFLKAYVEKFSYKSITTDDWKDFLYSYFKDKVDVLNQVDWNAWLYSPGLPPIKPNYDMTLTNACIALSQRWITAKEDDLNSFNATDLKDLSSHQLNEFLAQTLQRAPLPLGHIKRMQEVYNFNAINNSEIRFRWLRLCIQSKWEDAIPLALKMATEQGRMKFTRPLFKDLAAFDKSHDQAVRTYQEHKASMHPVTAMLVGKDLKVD
Each entry below carries its recorded IC50.
Entry rule: numbers only, all in nM.

In [3]: df
Out[3]:
                                   molecule  value_units  reported
0  O=C(c1ccccn1)N1CCN(Cc2ccc(Oc3nc4ccncc4s3)cc2)CC1 [Example 217]           nM      2510

stdin: Recall the reported IC50 of NC(=O)C1CCN(Cc2ccc(Oc3nc4ncccc4s3)cc2)CC1 [Example 100] on recombinant human LTA4 hydrolase (rhLTA4H) (Homo sapiens, UniProt P09960) and write it down.
stdout: 7.2

stdin: Recall the reported IC50 of NC(=O)N[C@@H]1C[C@H]2CC[C@@H](C1)N2Cc1ccc(Oc2nc3nccnc3s2)cc1 [Example 199] on recombinant human LTA4 hydrolase (rhLTA4H) (Homo sapiens, UniProt P09960) and write it down.
stdout: 42

stdin: Recall the reported IC50 of c1cnc2nc(Oc3ccc(CN4CCCCC4)cc3)sc2c1 [Example 85] on recombinant human LTA4 hydrolase (rhLTA4H) (Homo sapiens, UniProt P09960) and write it down.
stdout: 2.9

stdin: Recall the reported IC50 of O=C1C[C@@H](O)CN1C1CCN(Cc2ccc(Oc3nc4ncccc4s3)cc2)CC1 [Example 269] on recombinant human LTA4 hydrolase (rhLTA4H) (Homo sapiens, UniProt P09960) and write it down.
stdout: 3

stdin: Recall the reported IC50 of CC(=O)N1C[C@@H]2C[C@H]1CN2Cc1ccc(Oc2nc3nccc(C)c3s2)cc1 [Example 125] on recombinant human LTA4 hydrolase (rhLTA4H) (Homo sapiens, UniProt P09960) and write it down.
stdout: 12

stdin: Recall the reported IC50 of CC(=O)N1CC(CN(C)Cc2ccc(Oc3nc4ncc(Cl)cc4s3)cc2)C1 [Example 247] on recombinant human LTA4 hydrolase (rhLTA4H) (Homo sapiens, UniProt P09960) and write it down.
stdout: 33

stdin: Recall the reported IC50 of CC(=O)N[C@@H]1C[C@H]2CC[C@@H](C1)N2CCc1ccc(Oc2nc3ncccc3s2)cc1 [Example 49] on recombinant human LTA4 hydrolase (rhLTA4H) (Homo sapiens, UniProt P09960) and write it down.
stdout: 0.7

stdin: Recall the reported IC50 of OC1(c2ccccc2)CCN(CCc2ccc(Oc3nc4ncccc4s3)cc2)CC1 [Example 62] on recombinant human LTA4 hydrolase (rhLTA4H) (Homo sapiens, UniProt P09960) and write it down.
stdout: 8.3

stdin: Recall the reported IC50 of CN(CCCN1CCCC1=O)CCOc1ccc(Oc2nc3ncc(Cl)cc3s2)cc1 [Example 155] on recombinant human LTA4 hydrolase (rhLTA4H) (Homo sapiens, UniProt P09960) and write it down.
stdout: 329

* * *

Each entry below carries its recorded pIC50.
biological target: recombinant human LTA4 hydrolase (rhLTA4H) (Homo sapiens); construct: made in house; host or cells: Spodoptera frugiperda (Sf-9) cells, recombinant baculovirus (pFastBac1); assay: Recombinant human LTA4 hydrolase assay for LTA4 hydrolase inhibitor activity; format: biochemical; conditions: rhLTA4H, LTA4 substrate, LTB4 by immunoassay; single determination or average; read-out: IC50
Structures can show the parent of a compound that is named as a salt.
pIC50 here: minus log base 10 of the concentration, concentration in moles per litre.

Take a look at these entries with their results.
>>> df
                                   compound  reported
0  c1cncc(OC2CCN(Cc3ccc(Oc4nc5ccncc5s4)cc3)CC2)c1      5.93
1  COc1ccccc1C1CCN(CCOc2ccc(Oc3nc4cccnc4s3)cc2)CC1      6.47
2  NC(=O)N1CC2CN(CCOc3ccc(Oc4nc5ncccc5s4)cc3)CC2C1 (centres unmarked)      7.77
3  NC(=O)N1C[C@@H]2C[C@H]1CN2Cc1ccc(Oc2nc3ncccc3s2)cc1      8.46
4  CNC(=O)C1CCN(CCOc2ccc(Oc3nc4nccc(C)c4s3)cc2)CC1      7.28
5  CC(=O)N1CC2CC(CN(Cc3ccc(Oc4nc5ncccc5s4)cc3)C2)C1      7.64
6  NC(=O)N1[C@@H]2CC[C@H]1CN(CCc1ccc(Oc3nc4ncccc4s3)cc1)C2 [Example 210, hydrochloride]      8.22
7  CS(=O)(=O)N1C[C@H]2CC[C@@H](C1)N2CCOc1ccc(Oc2nc3ncccc3s2)cc1      7.47

stdin: Consider the compound `CC(=O)N1C[C@@H]2C[C@H]1CN2CCc1ccc(Oc2nc3cccnc3s2)cc1` . State its measured pIC50.
stdout: 6.96

stdin: Consider the compound `c1cnc(OC2CCN(Cc3ccc(Oc4nc5nccnc5s4)cc3)CC2)nc1` . State its measured pIC50.
stdout: 7.74

stdin: Consider the compound `NC(=O)N1C[C@@H]2C[C@H]1CN2CCOc1ccc(Oc2nc3ncccc3s2)cc1` . State its measured pIC50.
stdout: 7.54

stdin: Consider the compound NCCCN(Cc1ccc(Oc2nc3ccncc3s2)cc1)CC1CC1 [Example 204, hydrochloride] . State its measured pIC50.
stdout: 6.24

stdin: Consider the compound CC(=O)N1[C@@H]2CC[C@H]1C[C@H](NCCOc1ccc(Oc3nc4ncccc4s3)cc1)C2 [Example 215, hydrochloride] . State its measured pIC50.
stdout: 7.68

stdin: Consider the compound `CCN(CCO)CCc1ccc(Oc2nc3ncccc3s2)cc1` . State its measured pIC50.
stdout: 8.72

stdin: Consider the compound `CC(=O)N1C[C@@H]2C[C@H]1CN2Cc1ccc(Oc2nc3nc(C)ccc3s2)cc1` . State its measured pIC50.
stdout: 6.04

stdin: Consider the compound `NC(=O)C1CCN(Cc2ccc(Oc3nc4cccnc4s3)cc2)CC1` . State its measured pIC50.
stdout: 6.24

stdin: Consider the compound `NC(=O)C1CCN(Cc2ccc(Oc3nc4nccnc4s3)cc2)CC1` . State its measured pIC50.
stdout: 7.03
